system: hBGT1 (Homo sapiens)
Construct: expressed in transfected cells; host or cells: tsA201 (transient)
Sequence (P48065 1-614): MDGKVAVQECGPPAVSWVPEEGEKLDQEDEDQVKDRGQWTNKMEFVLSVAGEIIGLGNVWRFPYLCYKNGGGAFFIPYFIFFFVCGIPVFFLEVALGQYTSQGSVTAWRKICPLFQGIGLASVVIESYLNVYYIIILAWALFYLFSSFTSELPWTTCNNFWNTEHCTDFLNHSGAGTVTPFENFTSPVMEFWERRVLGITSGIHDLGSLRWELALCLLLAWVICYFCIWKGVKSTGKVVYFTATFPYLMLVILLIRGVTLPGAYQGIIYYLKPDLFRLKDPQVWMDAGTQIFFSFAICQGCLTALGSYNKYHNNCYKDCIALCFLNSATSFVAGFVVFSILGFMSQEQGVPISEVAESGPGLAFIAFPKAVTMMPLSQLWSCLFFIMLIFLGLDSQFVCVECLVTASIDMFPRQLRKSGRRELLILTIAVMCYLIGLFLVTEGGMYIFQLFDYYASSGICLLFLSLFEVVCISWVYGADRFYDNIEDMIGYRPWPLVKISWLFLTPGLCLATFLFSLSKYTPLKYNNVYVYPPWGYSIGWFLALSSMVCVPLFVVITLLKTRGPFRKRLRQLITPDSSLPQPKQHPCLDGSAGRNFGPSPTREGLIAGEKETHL
assay_name: [3H]GABA uptake at hBGT1 stably expressed in CHO cells
Format: cell-based
experimental_context: pIC50 ± S.E.M., high affinity component, biphasic fit, N=2; CHO
experimental_readout: pIC50
Just the number, please; pIC50 means minus log10 of the concentration in mol/L.

Query :: Requested read-out: pIC50. Entry: Cc1ccsc1C(=CCCN(C)[C@H]1CCCC[C@H]1C(=O)O)c1sccc1C
Result :: 7.29
